Ref: PubChem BioAssay

// reported viability for each item listed
assay-procedure: reversal of MRP1-mediated doxorubicin resistance, pilot screen, H69AR cells, doxorubicin co-treatment (AID 601)
measurement-conditions: H69AR cells + 2 uM doxorubicin, CellTiter-Glo, 72 h; measured here: viability with 2 uM doxorubicin; at 10 µM; stronger effect = lower value

[
  {
    "compound": "Cc1nc2ccc(N3C(=O)CCC3=O)cc2[nH]1",
    "viability, %": 95.2
  },
  {
    "compound": "CCOc1ccccc1NC(=O)C1CCCN(C(=O)NCc2ccccc2)C1 (stereo not given)",
    "viability, %": 96.6
  },
  {
    "compound": "CCNC(=O)N1c2ccc(OCC)cc2C(C)=CC1(C)C",
    "viability, %": 90.8
  },
  {
    "compound": "CCN(CC)CCN1C(=O)C(O)=C(C(=O)c2ccco2)C1c1ccccn1 (stereo not given)",
    "viability, %": 96
  },
  {
    "compound": "Cc1ccc(S(=O)(=O)NCC(=O)N(CC(=O)NCc2ccccc2)CC2CCCO2)cc1 (stereo not given)",
    "viability, %": 86.2
  }
]
